target: Pro-neuregulin-1, membrane-bound isoform (Homo sapiens) (UniProt Q02297); experiment: NRG1 binders on small-molecule microarrays, primary screen, psychiatric disease protein project, biochemical, small-molecule microarray, fluorescence 635/667 (AID 1075); details: NRG1 binding, 635 nm fluorescence, higher = more signal;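 further: score combines 667 nm spot fluorescence with signal to noise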
Sequence (Q02297 whole entry, looked up, canonical isoform): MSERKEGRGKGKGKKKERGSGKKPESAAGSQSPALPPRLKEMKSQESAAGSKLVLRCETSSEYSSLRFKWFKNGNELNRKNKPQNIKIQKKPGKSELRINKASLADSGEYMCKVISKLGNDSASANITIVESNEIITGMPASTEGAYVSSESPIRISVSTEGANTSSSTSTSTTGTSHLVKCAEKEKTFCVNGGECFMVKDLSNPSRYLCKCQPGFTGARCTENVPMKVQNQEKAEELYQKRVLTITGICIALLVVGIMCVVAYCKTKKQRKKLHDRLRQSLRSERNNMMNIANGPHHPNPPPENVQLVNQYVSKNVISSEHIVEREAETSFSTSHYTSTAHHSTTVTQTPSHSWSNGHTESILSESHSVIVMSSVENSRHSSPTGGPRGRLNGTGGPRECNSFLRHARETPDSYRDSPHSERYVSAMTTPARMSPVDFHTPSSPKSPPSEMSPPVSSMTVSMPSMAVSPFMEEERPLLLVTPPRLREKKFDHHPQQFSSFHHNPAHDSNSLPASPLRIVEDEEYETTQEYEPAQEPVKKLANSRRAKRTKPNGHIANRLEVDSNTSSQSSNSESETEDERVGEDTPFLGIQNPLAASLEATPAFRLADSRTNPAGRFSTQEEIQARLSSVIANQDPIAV
composite z-score values by entry
Format: numeric value only, no unit, no commentary.

Molecule: C=C(CCCC)/C(=C/C[C@H](OC(=O)c1ccncc1)c1ccccc1OCCO)c1cnc2ccccc2c1
Measured on: Pro-neuregulin-1, membrane-bound isoform (Homo sapiens) (UniProt Q02297)
composite z-score: 0.424
--
Molecule: O[C@@H](Cc1ccccc1)[C@H]1C2C=CCCC=C2CN1Cc1cccc(Cl)c1 (stereo partly drawn)
Measured on: Pro-neuregulin-1, membrane-bound isoform (Homo sapiens) (UniProt Q02297)
composite z-score: 0.898
--
Molecule: COC(=O)[C@@]1(Cc2ccc(OC)cc2)[C@H]2c3cc(C(=O)N(C)C)n(C)c3C[C@H]2CN1C(=O)c1ccccc1
Measured on: Pro-neuregulin-1, membrane-bound isoform (Homo sapiens) (UniProt Q02297)
composite z-score: 1.85

QUERY: Field request: composite z-score | item: C=C[C@@H](COC(=O)OC(C)(C)C)N(Cc1ccc(OC)cc1)S(=O)(=O)c1ccc(Br)cc1
RESULT: 0.142

QUERY: And what about the molecule C[C@H]1C2[C@H](Cc3ccccc3)NC(=O)[C@]23C(=O)N[C@H](Cc2ccccc2)C(=O)N2CCC[C@H]2C(=O)NC/C=C\C/C=C/C3[C@@H]2O[C@]12C (stereo partly drawn) ?
RESULT: 0.455

QUERY: And what about the molecule C[N+](C)(C)CCCCNC(=O)[C@H]1C[C@H]2C(=O)N3CCC[C@H]3C(=O)N2[C@H]1c1cccc(OCCO)c1 ?
RESULT: -0.235

QUERY: And what about the molecule CN(C)CCCC[C@@H]1NC(=O)[C@H]2C[C@@H](C(=O)NCCCCCCN)[C@@H](c3ccc(O)cc3)N2C1=O ?
RESULT: 1.79

QUERY: And what about the molecule CCCC[C@@H]1C[C@H]1[C@@H](NC(=O)c1ccccc1)c1ccc(C(=O)OC)cc1 ?
RESULT: -0.273

* * *

molecular target: Torsin-1A (Homo sapiens) (UniProt O14656); test: small-molecule binders of mutant TOR1A in lysate, primary screen, cell lysate, small-molecule microarray, COS7 lysate, 635/667 nm fluorescence (AID 1150); details: COS7 hTOR1A mutant lysate, 635 nm fluorescence, higher = more signal;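 further: score pools 667 nm emission and signal to noise measuring lysate protein binding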
Sequence (O14656 whole entry, looked up): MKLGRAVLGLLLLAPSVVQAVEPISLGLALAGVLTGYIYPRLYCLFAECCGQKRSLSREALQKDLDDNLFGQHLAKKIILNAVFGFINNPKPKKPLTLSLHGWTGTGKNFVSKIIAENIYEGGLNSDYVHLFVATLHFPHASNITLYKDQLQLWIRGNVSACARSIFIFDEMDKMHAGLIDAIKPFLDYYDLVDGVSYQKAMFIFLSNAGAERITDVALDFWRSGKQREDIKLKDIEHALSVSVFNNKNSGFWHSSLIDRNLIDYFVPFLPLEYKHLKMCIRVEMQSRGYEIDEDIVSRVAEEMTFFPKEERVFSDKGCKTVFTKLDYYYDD
Measurement name: composite z-score

QUERY: Field request: composite z-score | item: O=C(OCc1ccccc1)C1=CCC2c3[nH]c4ccccc4c3C(=O)C1N2S(=O)(=O)c1ccccc1[N+](=O)[O-] (stereo not given)
RESULT: 0.497

QUERY: And what about the molecule COC(=O)[C@@]1(CCC(=O)OC(C)(C)C)N=C(c2ccc(OCCCO)cc2)O[C@H]1c1ccccc1N=[N+]=[N-] ?
RESULT: -0.143

QUERY: And what about the molecule COc1cc2c(cc1O)C(c1cccs1)N(C)CC2 (stereo not given) ?
RESULT: -0.597

QUERY: And what about the molecule N#Cc1ccc(NN2C(C(O)C(c3ccccc3)c3ccccc3)C=CC3C(=O)N(c4ccccc4)C(=O)C32)cc1 (stereo not given) ?
RESULT: 0.274

QUERY: And what about the molecule CC1(C)C2C=C(C(O)C3C=CC4C(=O)NC(=O)C4N3Nc3ccc(Cl)cc3Cl)C[C@@H]1C2 (stereo not given in full) ?
RESULT: 1.09

QUERY: And what about the molecule COc1cccc(-c2cccc(=O)o2)c1 ?
RESULT: 0.698

QUERY: And what about the molecule COC(=O)C(CC#Cc1ccc2c(c1)[C@]1(C(=O)N2)[C@H](C(=O)Nc2nc3ccccc3s2)[C@H]2C(=O)O[C@H](c3ccccc3)[C@H](c3ccccc3)N2[C@@H]1c1ccc(O)cc1)C(=O)OC ?
RESULT: 0.964

QUERY: And what about the molecule CN1C(=O)C2C=CC(C(O)c3ccco3)N(Nc3ccccc3)C2C1=O (stereo not given) ?
RESULT: -0.59

QUERY: And what about the molecule CC(C)CNC(=O)[C@@]1(Cc2ccccc2I)c2ccccc2C(=O)N(C2CCCCC2)[C@H]1c1ccc(CO)cc1 ?
RESULT: 0.551

QUERY: And what about the molecule CC(C)[Si](C#Cc1ccc(Oc2ccccc2)cc1)(O[Si](C#Cc1ccc(Oc2ccccc2)cc1)(C(C)C)C(C)C)C(C)C ?
RESULT: 0.514
